Assayed Target: T1, recombinant human laminin-521 (human, UniProt O15230 36-3695; P55268 33-1798; P11047 34-1609)
T1 construct: laminin subunit alpha-5, human; chain told by the isoform's name; laminin subunit beta-2, human; laminin subunit gamma-1, human; also called laminin isoform-521; source: bought: BioLamina (recombinant human, >95% purity); copies: + +
Measurement Notes: ELISA; plates coated with 50 nM GF or chemokine in PBS; 10 nM laminin isoform in PBS added; bound laminin detected with anti-LAMC1 or anti-LAMA3 polyclonal antibody; A450 signals greater than 0.1 taken as binding; BSA-coated wells as control
Condition Parameters: both partners purified
Measurement Name: binding result

NT-3 (ligand, UniProt P20783 139-257, looked up, neurotrophin-3, bought in its mature form; also called neurotrophin NT-3; source: bought: PeproTech; produced in Escherichia coli) YAEHKSHRGEYSVCDSESLWVTDKSSAIDIRGHQVTVLGEIKTGNSPVKQYFYETRCKEARPVKNGCRGIDDKHWNSQCKTSQTYVRALTSENNKLVGWRWIRIDTSCVCALSRKIGRT = binds
